- protocol.details: Cytotoxicity against mock-infected MDBK cells assessed as reduction in cell viability after 96 hrs by MTT assay
- Format: cell-based, Bos taurus
- condition.summary: cattle
experimental.endpoint: log10 of CC50 at 96 h (log10 of the value in µM)
In plain terms, each number is the log10 of measured CC50 at 96 h in µM.

• CCOC(=O)c1ccc(/N=N/C=C/N2CCCC2)cc1 = 2.00
• Clc1ccc2c(/N=N/C3=C4CCCCN4CCC3)ccnc2c1 = 1.60
• C(=C\N1CCN(c2ccccc2)CC1)/N=N/c1ccccc1 = 0.70
• CN1C=C(/N=N/c2ccc(Cl)c(C(F)(F)F)c2)CCC1 = 1.45
• CN1C=C(/N=N/c2ccc(Cl)cc2)CCC1 = 1.76
• Fc1ccc(/N=N\C2=C3CCCCN3CCC2)cc1 = 1.75
• CN1C=C(/N=N/c2cccc(Cl)c2)CCC1 = 1.94
• CN1CCC/C1=C\N=N\c1cccc(Br)c1 = 1.72

Look up log10 of CC50 at 96 h: C(=C\N1CCCCC1)/N=N/c1ccccc1
0.85

---

Below: a set of entries, each annotated with reported CC50 at 96 h.
- protocol.details: Cytotoxicity against mock-infected MDBK cells assessed as reduction in cell viability after 96 hrs by MTT assay
- Format: cell-based, Bos taurus
- condition.summary: cattle
Entry rule: numbers only, all in µM.

Some entries whose results are on file:
* Clc1cccc(N2CCN(/C=C/N=N/c3ccccc3)CC2)c1 | 7
* FC(F)(F)c1cc(/N=N/C2=CN(Cc3ccccc3)CCC2)ccc1Cl | 28
* CN1CCC/C1=C\N=N\c1cc(C(F)(F)F)cc(C(F)(F)F)c1 | 36

Field: next molecule
Requested read-out: CC50 at 96 h. Entry: Fc1ccccc1N1CCN(/C=C/N=N/c2ccccc2)CC1
10

---

- protocol.details: Cytotoxicity against mock-infected human MT4 cells assessed as reduction in cell viability after 96 hrs by MTT assay
- Type: cell-based
experimental.endpoint: CC50 at 96 h (µM)
Dear colleague, please return just the value in µM, with no unit written.

Guide cases for CC50 at 96 h, answers given:
- CC(=O)c1ccc(N2CCN(/C=C/N=N/c3ccccc3)CC2)cc1: 21
- FC(F)(F)c1cc(/N=N/C=C2\CCCN2Cc2ccccc2)ccc1Cl: 20
- C(=C\N1CCN(c2ccccc2)CC1)/N=N/c1ccccc1: 15
- c1ccc2c(/N=N\C3=C4CCCN4CCC3)cccc2c1: 18
- CN1CCC/C1=C\N=N\c1cccc(Br)c1: 55
- C(=C\N1CCN(c2ncccn2)CC1)/N=N/c1ccccc1: 17
- CN1C=C(/N=N/c2ccc(Cl)c(C(F)(F)F)c2)CCC1: 62
- CN1C=C(/N=N/c2ccc(Br)c(C(F)(F)F)c2)CCC1: 50
- FC(F)(F)c1cc(/N=N\C2=C3CCCCN3CCC2)ccc1Br: 34

Item under review: CN1CCC/C1=C\N=N\c1ccc(Br)cc1 . Reported CC50 at 96 h?
23

---

- protocol.details: Cytotoxicity against mock-infected human MT4 cells assessed as reduction in cell viability after 96 hrs by MTT assay
- Format: cell-based
compounds and their reported CC50 at 96 h
Field: numeric (µM). Do not append units.

Solved entries:
* FC(F)(F)c1cc(/N=N/C2=CN(Cc3ccccc3)CCC2)ccc1Cl | 43
* C(=C\N1CCOCC1)/N=N/c1ccccc1 | 7

# input compound: CN1CCC/C1=C\N=N\c1c(F)c(F)c(F)c(F)c1F ; wanted: its CC50 at 96 h
8

# get_value(readout='CC50 at 96 h', item= CN1CCC/C1=C\N=N\c1ccc(Br)c(C(F)(F)F)c1 )
24

# CC50 at 96 h lookup, item CN1CCC/C1=C\N=N\c1cccc([N+](=O)[O-])c1
25

Bench note: what CC50 at 96 h did Clc1ccc2c(/N=N/C3=C4CCCCN4CCC3)ccnc2c1 show?
15

Name the reported CC50 at 96 h value associated with the compound Brc1ccc(/N=N\C2=C3CCCCN3CCC2)cc1
27

---

- Test system: Coxsackievirus B2
- protocol.details: Antiviral activity against CVB2 infected in Vero76 cells assessed as reduction in virus plaque formation after 4 days by MTT assay
- Assay type: functional, organism-based
- condition.summary: Enterovirus B, Vero 76, 96 h
experimental.endpoint: pEC50
As a rule, pEC50 stands for the negative log10 of the concentration, concentration in M.

- FC(F)(F)c1cc(/N=N/C2=CN(Cc3ccccc3)CCC2)ccc1Cl: 5.40
- CN1C=C(/N=N/c2ccc(Cl)c(Cl)c2)CCC1: 4.85

Give the reported pEC50 for C(/N=N/c1ccccc1)=C1/CCCN1Cc1ccccc1 (system: Coxsackievirus B2).
4.80

Give recorded pEC50 with Coxsackievirus B2 for the following molecule: FC(F)(F)c1cc(/N=N\C2=C3CCCCN3CCC2)ccc1Br
4.38

---

Here, each record is paired with measured CC50 at 96 h data.
- protocol.details: Cytotoxicity against mock-infected BHK cells assessed as reduction in cell viability after 96 hrs by MTT assay
- Format: cell-based, Mesocricetus auratus
- condition.summary: hamster
Report only the number, with the unit µM understood.

I would be grateful if you could share the reported CC50 at 96 h for CN1C=C(/N=N/c2cc(C(F)(F)F)cc(C(F)(F)F)c2)CCC1 .
82

I have this molecule here, CN1/C(=C\N=N\c2ccc(Cl)cc2)C(C)(C)c2ccccc21 , and I need its recorded CC50 at 96 h.
21

Can you look up the measured CC50 at 96 h of FC(F)(F)c1cc(/N=N/C=C2\CCCN2Cc2ccccc2)ccc1Cl for me?
22

I would be grateful if you could share the reported CC50 at 96 h for CC(=O)c1ccc(N2CCN(/C=C/N=N/c3ccccc3)CC2)cc1 .
49

Look at this molecule and give its reported CC50 at 96 h. Clc1ccc(/N=N\C2=C3CCCN3CCC2)cc1Cl
61

---

- Test system: Human alphaherpesvirus 1
- protocol.details: Antiviral activity against HSV1 infected in Vero76 cells assessed as reduction in virus plaque formation after 4 days by MTT assay
- Format: functional, organism-based
- condition.summary: Human alphaherpesvirus 1, Vero 76, 96 h
EC50 reference
// note: answer is a bare numeric in µM

* CN1CCC/C1=C\N=N\c1ccc(Cl)c(Cl)c1 | 40
* CN1CCC/C1=C\N=N\c1ccc(F)c(C(F)(F)F)c1 | 60

Would you mind telling me what EC50 value was observed for FC(F)(F)c1cc(/N=N\C2=C3CCCN3CCC2)ccc1Cl ?
33

Return reported EC50; argument: FC(F)(F)c1cc(/N=N\C2=C3CCCCN3CCC2)ccc1Br
25

---

- protocol.details: Cytotoxicity against mock-infected MDBK cells assessed as reduction in cell viability after 96 hrs by MTT assay
- Type: cell-based, Bos taurus
- condition.summary: cattle
experimental.endpoint: CC50 at 96 h (µM)
Just the number please, in µM, no unit attached.

# count of solved cases: 2
* COc1ccc(/N=N/C=C2\CCCN2C)cc1 | 67
* Clc1ccccc1N1CCN(/C=C/N=N/c2ccccc2)CC1 | 13

Sample CN1C=C(/N=N/c2ccc(Cl)c(Cl)c2)CCC1 — what was its CC50 at 96 h?
73

---

- System: Coxsackievirus B2
- protocol.details: Antiviral activity against CVB2 infected in Vero76 cells assessed as reduction in virus plaque formation after 4 days by MTT assay
- Type: functional, organism-based
- condition.summary: Enterovirus B, Vero 76, 96 h
Reported pEC50 by item:
// pEC50 here means minus log10 of the molar concentration (mol/L)

Illustrative cases are given below, each with its answer.
* CN1C=C(/N=N/c2cccc(Cl)c2)CCC1 | 4.47
* O=[N+]([O-])c1ccc(/N=N\C2=C3CCCCN3CCC2)cc1 | 4.59
* CN1C=C(/N=N/c2cccc3ccccc23)CCC1 | 4.12
* C(=C\N1CCCCC1)/N=N/c1ccccc1 | 5.15
* C(=C\N1CCN(c2ncccn2)CC1)/N=N/c1ccccc1 | 6.05
* COc1ccc(N2CCN(/C=C/N=N/c3ccccc3)CC2)cc1 | 5.30

# input for lookup
Using the record for FC(F)(F)c1cccc(/N=N\C2=C3CCCCN3CCC2)c1 , report its pEC50.
4.68

---

- System: Coxsackievirus B2
- protocol.details: Antiviral activity against CVB2 infected in Vero76 cells assessed as reduction in virus plaque formation after 4 days by MTT assay
- Type: functional, organism-based
- condition.summary: Enterovirus B, Vero 76, 96 h
experimental.endpoint: log10(EC50) (log10 of the value in µM)
Scale: decimal log of EC50, EC50 in µM.

Reference set, count: 3
• CN1CCC/C1=C\N=N\c1cccc(Br)c1 = 1.20
• CN1CCC/C1=C\N=N\c1ccc(Br)c(C(F)(F)F)c1 = 2.00
• CN1CCC/C1=C\N=N\c1ccccc1 = 1.28

Now examine the next entry.
Value wanted: log10(EC50) (Coxsackievirus B2) of entry C(=C\N1CCSCC1)/N=N/c1ccccc1
0.78
